assay: Case study: plasma amino acids after ingestion of 2 g di-leucine (Ce) or 2 g leucine (C4)
condition parameters: 60 mPost ingestion of 2 g
measurement label: Plasma Threonine Delta Change Relative to Baseline Values (µM)
Numbers only, in µM.

Query :: Would you mind telling me what Plasma Threonine Delta Change Relative to Baseline Values value was observed for CC(C)C[C@H](NC(=O)[C@@H](N)CC(C)C)C(=O)O [Ce, L-Leucyl-L-leucine] ?
Result :: 6.11

====

assay: Case study: plasma amino acids after ingestion of 2 g di-leucine (Ce) or 2 g leucine (C4)
condition parameters: 60 mPost ingestion of 2 g
measurement label: Total Plasma BCAA Delta Change Relative to Baseline Values (µM)
Give bare numbers, in µM.

Query :: Would you mind telling me what Total Plasma BCAA Delta Change Relative to Baseline Values value was observed for CC(C)C[C@H](NC(=O)[C@@H](N)CC(C)C)C(=O)O ?
Result :: 26

====

assay: Case study: plasma amino acids after ingestion of 2 g di-leucine (Ce) or 2 g leucine (C4)
condition parameters: 60 mPost ingestion of 2 g
measurement label: Plasma Methionine Delta Change Relative to Baseline Values (µM)
Answers are plain numbers, in µM.

Query :: Would you mind telling me what Plasma Methionine Delta Change Relative to Baseline Values value was observed for CC(C)C[C@H](NC(=O)[C@@H](N)CC(C)C)C(=O)O ?
Result :: 1.01

====

assay: Case study: plasma amino acids after ingestion of 2 g di-leucine (Ce) or 2 g leucine (C4)
condition parameters: 30 mPost ingestion of 2 g
measurement label: Plasma Methionine Delta Change Relative to Baseline Values (µM)
One number for each entry, in µM.

Query :: Would you mind telling me what Plasma Methionine Delta Change Relative to Baseline Values value was observed for CC(C)C[C@H](NC(=O)[C@@H](N)CC(C)C)C(=O)O [Ce, L-Leucyl-L-leucine] ?
Result :: 2.32

====

assay: Case study: plasma amino acids after ingestion of 2 g di-leucine (Ce) or 2 g leucine (C4)
condition parameters: 30 mPost ingestion of 2 g
measurement label: Total Plasma BCAA Delta Change Relative to Baseline Values (µM)
One number for each entry, in µM.

Query :: Would you mind telling me what Total Plasma BCAA Delta Change Relative to Baseline Values value was observed for CC(C)C[C@H](NC(=O)[C@@H](N)CC(C)C)C(=O)O [Ce, L-Leucyl-L-leucine] ?
Result :: 213
